B1: Tudor domain-containing protein 3, residues 554 to 611; numbered along this chain, Q9H7E2 (parent)
chain: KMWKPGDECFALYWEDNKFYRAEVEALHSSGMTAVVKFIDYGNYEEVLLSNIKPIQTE

- Variants of: B1
- testName: abundance fitness (aPCA) (normalised: wild type 0, dead -1); higher = more abundant; growth selection in yeast, the domain comes from the species named
- studyConditions: Homo sapiens
Hi, to clarify the labels: Condition met covers abundance fitness from -0.03 upward, Condition not met covers anything below -0.03.

For orientation, consider the following solved cases.
mutations	labelValue
E25M	Condition met
S50D	Condition met
E46D	Condition not met

Task item: Hello, I need to know if K18F has measured abundance fitness not below -0.03. Thanks!
Reply: Condition not met

Task item: Here is the next variant: F10C
Reply: Condition not met
